- procedure text: qHTS assay to identify small molecule antagonists of the progesterone receptor (PR) signaling pathway - cell viability counter screen (AID 1346798); further: nearly all actives have a fitted effect of over 50% in size
- measurement context: PR-UAS-bla HEK293T viability, CellTiter-Glo luminescence, 16 h; series mostly up to 92.4 µM
Results filed as inconclusive are left out. The source made the active and inactive calls. The call rests on the fitted dose curve; in most records, active means well fitted cell-killing curve with a large enough effect in the repeat runs; inconclusive means weak or mixed curves, or effect the other way; inactive means no such curve, though single readings can be large or run the other way.
Field 'call' accepts active, inactive

Please review the following examples before continuing.
| compound | classification |
| --- | --- |
| CC(CC=O)c1ccccc1 (stereo not given) | inactive |
| C#CCN(C)CCCOc1ccc(Cl)cc1Cl | inactive |
| CN1CCC(N(Cc2cccs2)c2ccccc2)CC1 | active |

# outcome recorded in this test, key = COc1ccc(C(=O)c2ccc(OC)cc2O)c(O)c1
inactive

# outcome recorded in this test, key = C=C(C)C(=O)OCCO
inactive

# outcome recorded in this test, key = CCCCCCCCO[C@@H]1O[C@H](CO)[C@@H](O)[C@H](O)[C@H]1O
inactive
